Cited source: patent US6248765A

pKi values by entry
- MEASURED_TARGET: histamine H3 receptor (Rattus norvegicus)
- Construct: synthesized from [^3 H]histidine by synaptosomes of rat cerebral cortex
- TEST_NAME: H3 antagonist power: reversal of (R)-alpha-methylhistamine-induced inhibition of [3H]histamine release from synaptosomes of rat cerebral cortex
- TEST_CONDITIONS: read-out: Ki (apparent dissociation constant as histamine antagonist at the H3 receptors)
pKi: −log10 of the molar value.

COMPOUND	pKi
c1ccc2cc(COCCCc3c[nH]cn3)ccc2c1 [Example 56]	7.66
CSc1ccc(OCCCc2c[nH]cn2)cc1 [Example 166]	8.52
c1nc(CCCOCCC2CC3CCC2C3)c[nH]1 (centres unmarked) [Example 61]	9.30
CON=C(C)c1ccc(OCCCc2c[nH]cn2)cc1 [Example 93]	7.60
c1nc(CCCOc2ccc3c(c2)CCCC3)c[nH]1 [Example 21]	7.35
Cc1cc(C)cc(NC(=O)OCCCc2c[nH]cn2)c1 [Example 115]	7.36
CCCCCCCOCCCc1c[nH]cn1 [Example 64, 3-(1H-Imidazol-4-yl)propyl heptyl ether]	7.80
Cc1nc(-c2ccc(OCCCc3c[nH]cn3)cc2)no1 [Example 149]	7.36

---

Catalogue of compounds with associated EC50
- MEASURED_TARGET: histamine H3 receptor (Rattus norvegicus, UniProt Q9QYN8)
- Construct: synthesized from [^3 H]histidine by synaptosomes of rat cerebral cortex
- Sequence (Q9QYN8 whole entry): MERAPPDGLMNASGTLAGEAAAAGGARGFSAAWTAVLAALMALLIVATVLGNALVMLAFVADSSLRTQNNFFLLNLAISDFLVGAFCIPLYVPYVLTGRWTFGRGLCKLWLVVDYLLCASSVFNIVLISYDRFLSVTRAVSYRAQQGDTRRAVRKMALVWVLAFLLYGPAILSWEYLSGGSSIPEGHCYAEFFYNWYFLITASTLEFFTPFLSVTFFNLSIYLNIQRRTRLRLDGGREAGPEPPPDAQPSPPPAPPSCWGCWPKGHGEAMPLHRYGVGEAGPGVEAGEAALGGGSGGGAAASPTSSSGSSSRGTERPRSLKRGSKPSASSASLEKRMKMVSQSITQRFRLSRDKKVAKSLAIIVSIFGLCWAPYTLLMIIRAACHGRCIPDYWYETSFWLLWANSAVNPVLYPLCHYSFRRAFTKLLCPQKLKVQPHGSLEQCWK
- TEST_NAME: H3 agonist effect: inhibition of [3H]histamine release from synaptosomes of rat cerebral cortex
- TEST_CONDITIONS: rat cerebral cortex synaptosomes, inhibition of [3H]histamine release; read-out: EC50 (50% effective concentration of partial agonists)

COMPOUND	EC50 (nM)
FC(F)(F)c1cccc(OCCCc2c[nH]cn2)c1 [Example 8]	100
CC(C)CCOCCCc1c[nH]cn1 [Example 5]	130
O=C(NC(c1ccccc1)c1ccccc1)OCCCc1c[nH]cn1 [Example 2]	100
